assay_readout: melting point

Form field: reported melting point of Cl.Cl.O=c1[nH]c2c(CCNCCN3CCOCC3)c3ccccc3n2c2ccccc12
196 to 198 °C

Item under review: CCc1c2ccccc2n2c1[nH]c(=O)c1ccccc12 . Reported melting point?
245 to 260 °C

I am curious: what melting point value has been reported for NCCc1c2ccccc2n2c1[nH]c(=O)c1ccccc12 ?
> 300 °C

Data request, read-out melting point, for CCC(N)Cc1c2ccccc2n2c1[nH]c(=O)c1ccccc12 (centres unmarked)
165 to 195 °C (dec.)

Reported melting point for O=c1[nH]c2c(CCO)c3ccccc3n2c2ccccc12 : what is it?
248 to 252 °C

From: patent US6964960B2
